MIC, Acinetobacter baumannii AB5075: measured values
Please state the figure in µg/mL; there is no need to write the unit.

Below, each entry is followed by its recorded MIC result.
- CCCCCCNS(=O)(=O)c1ccc(-n2nnc(C(C)=NNC(=N)N)c2C)cc1: 16
- CCCCCCCCCNS(=O)(=O)c1ccc(-n2nnc(C(C)=NNC(=N)N)c2C)cc1: 64

Shifting focus to the compound that follows.
Input line: State MIC on Acinetobacter baumannii AB5075. Entry: `CCCCCCCCNS(=O)(=O)c1ccc(-n2nnc(C(C)=NNC(=N)N)c2C)cc1`
Output line: 64

###

test system: methicillin-resistant Staphylococcus aureus (MRSA USA300); assay: MIC by broth microdilution; format: cell-based; settings: MRSA|USA300, read-out: MIC S. aureus USA300
measure: MIC (µg/mL)
Reply with just the number (in µg/mL).

// worked examples, MIC included
• CCCCCCCCNS(=O)(=O)c1ccc(-n2nnc(C(C)=NNC(=N)N)c2C)cc1 = 64
• CN[C@H](CC(C)C)C(=O)N[C@H]1C(=O)N[C@@H](CC(N)=O)C(=O)N[C@H]2C(=O)N[C@H]3C(=O)N[C@H](C(=O)N[C@H](C(=O)O)c4cc(O)cc(O)c4-c4cc3ccc4O)[C@H](O)c3ccc(c(Cl)c3)Oc3cc2cc(c3O[C@@H]2O[C@H](CO)[C@@H](O)[C@H](O)[C@H]2O[C@H]2C[C@](C)(N)[C@H](O)[C@H](C)O2)Oc2ccc(cc2Cl)[C@H]1O [Vancomycin, reference compound] = 1

As a next step, examine the molecule that follows.
Input line: Give MIC for `CCCCCCNS(=O)(=O)c1ccc(-n2nnc(C(C)=NNC(=N)N)c2C)cc1`
Output line: 16
